System: KB
ASSAY EXPLANATION: Growth inhibition of human KB cells at 20 uM after 24 hrs by MTT assay relative to control
Format: functional
RUN CONDITIONS: read-out: GI
READOUT TYPE: inhibition of growth at 20 µM (%)
Reply with just the number (in %).

Entry CCOP(=O)(OCC)C1C(C#N)=C(N)Oc2ccc(Br)cc21 (configuration not stated) has what inhibition of growth at 20 µM?
12

Entry CC(C)OP(=O)(OC(C)C)C1C(C#N)=C(N)Oc2ccc([N+](=O)[O-])cc21 (configuration not stated) has what inhibition of growth at 20 µM?
16.2

Entry CC(C)OP(=O)(OC(C)C)C1C(C#N)=C(N)Oc2ccc(Br)cc21 (configuration not stated) has what inhibition of growth at 20 µM?
20.3

Entry CC(C)OP(=O)(OC(C)C)C1C(C#N)=C(N)Oc2c1cccc2C(C)(C)C (configuration not stated) has what inhibition of growth at 20 µM?
12.5

Entry CC(C)OP(=O)(OC(C)C)C1C(C#N)=C(N)Oc2ccccc21 (configuration not stated) has what inhibition of growth at 20 µM?
8.93

Entry CCOP(=O)(OCC)C1C(C#N)=C(N)Oc2ccc([N+](=O)[O-])cc21 (configuration not stated) has what inhibition of growth at 20 µM?
6.18

Entry CCOP(=O)(OCC)C1C(C#N)=C(N)Oc2ccccc21 (configuration not stated) has what inhibition of growth at 20 µM?
19.4

Entry CCCCOP(=O)(OCCCC)C1C(C#N)=C(N)Oc2c1cccc2C(C)(C)C (configuration not stated) has what inhibition of growth at 20 µM?
14.5

Entry CCCCOP(=O)(OCCCC)C1C(C#N)=C(N)Oc2ccc([N+](=O)[O-])cc21 (configuration not stated) has what inhibition of growth at 20 µM?
14.5

Entry CCCCOP(=O)(OCCCC)C1C(C#N)=C(N)Oc2ccccc21 (configuration not stated) has what inhibition of growth at 20 µM?
17.6

Entry CCCCOP(=O)(OCCCC)C1C(C#N)=C(N)Oc2ccc(Br)cc21 (configuration not stated) has what inhibition of growth at 20 µM?
11.5

Entry CCOP(=O)(OCC)C1C(C#N)=C(N)Oc2c1cccc2C(C)(C)C (configuration not stated) has what inhibition of growth at 20 µM?
11.5

* * *

Tested on: KB
ASSAY EXPLANATION: Growth inhibition of human KB cells at 2 uM after 24 hrs by MTT assay relative to control
Format: functional
RUN CONDITIONS: read-out: GI
READOUT TYPE: inhibition of growth at 2 µM (%)
Reply with just the number (in %).

Entry CC(C)OP(=O)(OC(C)C)C1C(C#N)=C(N)Oc2ccc(Br)cc21 (configuration not stated) has what inhibition of growth at 2 µM?
9.45

Entry CCOP(=O)(OCC)C1C(C#N)=C(N)Oc2c1cccc2C(C)(C)C (configuration not stated) has what inhibition of growth at 2 µM?
5.65

Entry CCOP(=O)(OCC)C1C(C#N)=C(N)Oc2ccccc21 (configuration not stated) has what inhibition of growth at 2 µM?
0.12

Entry CC(C)OP(=O)(OC(C)C)C1C(C#N)=C(N)Oc2c1cccc2C(C)(C)C (configuration not stated) has what inhibition of growth at 2 µM?
5.5

Entry CCCCOP(=O)(OCCCC)C1C(C#N)=C(N)Oc2c1cccc2C(C)(C)C (configuration not stated) has what inhibition of growth at 2 µM?
11.2

Entry CC(C)OP(=O)(OC(C)C)C1C(C#N)=C(N)Oc2ccccc21 (configuration not stated) has what inhibition of growth at 2 µM?
2.5

Entry CCCCOP(=O)(OCCCC)C1C(C#N)=C(N)Oc2ccc(Br)cc21 (configuration not stated) has what inhibition of growth at 2 µM?
9.5
